# System: C. elegans
# Assay type: in vivo, Caenorhabditis elegans
# EXPERIMENTAL_PARAMETERS: 25 µM, after 7 days relative to viability at day 0; mean of at least two repeats
Assign labels as follows, please: fulfilled for C. elegans % survival at 25 µM below 90%; not fulfilled for C. elegans % survival at 25 µM equal to or exceeding 90%.

Check out these entries, answers already filled in.
STRUCTURE_SMILES | SYSTEM_NAME | CLASS_ASSIGNMENT
Nc1ncc(-c2ccc(Cl)cc2)[nH]1 | C. elegans | fulfilled
CC(C)CNc1ncc(-c2ccc(Cl)cc2)[nH]1 | C. elegans | not fulfilled
Brc1ccc(-c2cnc(NCCCn3cc(C4CC4)nn3)[nH]2)cc1 | C. elegans | fulfilled
c1ccc(-c2cnc(NC3CCCC3)[nH]2)cc1 | C. elegans | not fulfilled
CCCCNc1ncc(-c2ccc(Br)cc2)[nH]1 | C. elegans | not fulfilled

**Query** Answer whether the compound CCCCCCCCn1c(-c2ccc(Cl)cc2)cnc1N has C. elegans % survival at 25 µM strictly less than 90%
**Result** fulfilled

**Query** Strictly below 90% in C. elegans % survival at 25 µM? Clc1ccc(-c2cnc(NC3CCCC3)[nH]2)cc1
**Result** not fulfilled

**Query** Hi there! Is C. elegans % survival at 25 µM for c1ccc(-c2cn(CCCCNc3ncc(-c4ccccc4)[nH]3)nn2)cc1 below 90%, do you know?
**Result** fulfilled

**Query** Hello, I'm reviewing records and need to know if C. elegans % survival at 25 µM of Brc1ccc(-c2cnc(NCCCn3cc(C4CCCCC4)nn3)[nH]2)cc1 is below 90%. Could you check?
**Result** not fulfilled

**Query** # strict comparison: is reported C. elegans % survival at 25 µM < 90%? input = Nc1ncc(-c2ccc([N+](=O)[O-])cc2)[nH]1
**Result** not fulfilled

* * *

Field: C. elegans % survival at 25 µM. Provide a value for each of the compounds that follow.
# System: C. elegans
# Type: in vivo, Caenorhabditis elegans
# EXPERIMENTAL_PARAMETERS: 25 µM, after 7 days relative to viability at day 0; mean of at least two repeats
Write the figure, then the unit, nothing else.

STRUCTURE_SMILES | SYSTEM_NAME | REPORTED
CCCCCCCCn1c(-c2ccccc2)cnc1N | C. elegans | 92.5%

Provide C. elegans % survival at 25 µM for all items below, preserving their order.
1. c1ccc(-c2cn(CCCNc3ncc(-c4ccccc4)[nH]3)nn2)cc1
2. Nc1ncc(-c2ccccc2)[nH]1
3. Nc1ncc(-c2ccc(Br)cc2)[nH]1

**Result**
87.7%
89.8%
90.6%
